test system: NCI-H292 lung cancer cells; experiment: FDA drug screening, complete media vs cholesterol-free media without statin (TABLE 1); format: cell-based, human; conditions: NCI-H292 cells, complete media, FDA drug library screen
Structures can show the parent of a compound that is named as a salt.
# if measured Complete < 1: yes  # else: no

>  <compound>
COc1ccc2c(c1)c(CC(=O)OCC(=O)O)c(C)n2C(=O)c1ccc(Cl)cc1

>  <class-label>
no

$$$$
>  <compound>
CC1(O)CCC(C(C)(C)O)CC1 (stereo not shown) [Terpin (hydrate)]

>  <class-label>
yes

$$$$
>  <compound>
NC(=O)CC[C@H](N)C(=O)O

>  <class-label>
no

$$$$
>  <compound>
CCCC1O[C@@H]2C[C@H]3[C@@H]4CCC5=CC(=O)C=C[C@]5(C)[C@H]4[C@@H](O)C[C@]3(C)[C@]2(C(=O)CO)O1 (stereo partly shown) [Budesonide]

>  <class-label>
no

$$$$
>  <compound>
CC(C)(C)[C@@H]1NC(=O)O[C@@H]2CCC[C@H]2OC/C=C/C(F)(F)c2nc3ccccc3nc2O[C@@H]2C[C@@H](C(=O)N[C@]3(C(=O)NS(=O)(=O)C4(C)CC4)C[C@H]3C(F)F)N(C2)C1=O

>  <class-label>
yes

$$$$
>  <compound>
NNC(=O)c1ccncc1

>  <class-label>
no

$$$$
>  <compound>
CC(C)=CCC/C(C)=C/CC/C(C)=C/CC/C=C(\C)CC/C=C(\C)CCC=C(C)C

>  <class-label>
no

$$$$
>  <compound>
CN(C)CCC=C1c2ccccc2CCc2ccccc21 [Amitriptyline (hydrochloride)]

>  <class-label>
no

$$$$
>  <compound>
COc1cc(OC)c(C(=O)CCCN2CCCC2)c(OC)c1 [Buflomedil (hydrochloride)]

>  <class-label>
yes

$$$$
>  <compound>
CC(C)(C)c1cc(NC(=O)Nc2ccc(-c3cn4c(n3)sc3cc(OCCN5CCOCC5)ccc34)cc2)no1

>  <class-label>
yes

$$$$
>  <compound>
Nc1ccn([C@@H]2O[C@H](CO)[C@@H](O)[C@@H]2O)c(=O)n1

>  <class-label>
yes

$$$$
>  <compound>
Cc1cc(C2=NOC(c3cc(Cl)cc(Cl)c3)(C(F)(F)F)C2)ccc1C(=O)NCC(=O)NCC(F)(F)F (stereo not shown)

>  <class-label>
no

$$$$
>  <compound>
OC(CCN1CCCCC1)(c1ccccc1)C1CC2C=CC1C2 (stereo not shown) [Biperiden (Hydrochloride)]

>  <class-label>
no

$$$$
>  <compound>
O=S(=O)([O-])c1cc(O)ccc1O.O=S(=O)([O-])c1cc(O)ccc1O.[Ca+2] [Calcium dobesilate]

>  <class-label>
no

$$$$
>  <compound>
Cc1cn([C@H]2O[C@@H](CO)[C@H](O)[C@H]2F)c(=O)[nH]c1=O

>  <class-label>
yes

$$$$

Attribution: patent US20250144067A1
